Can you tell me Ki for the items I'm about to list?
# Assayed System: D(2) dopamine receptor (Rattus norvegicus, UniProt P61169)
# Sequence (P61169 whole entry): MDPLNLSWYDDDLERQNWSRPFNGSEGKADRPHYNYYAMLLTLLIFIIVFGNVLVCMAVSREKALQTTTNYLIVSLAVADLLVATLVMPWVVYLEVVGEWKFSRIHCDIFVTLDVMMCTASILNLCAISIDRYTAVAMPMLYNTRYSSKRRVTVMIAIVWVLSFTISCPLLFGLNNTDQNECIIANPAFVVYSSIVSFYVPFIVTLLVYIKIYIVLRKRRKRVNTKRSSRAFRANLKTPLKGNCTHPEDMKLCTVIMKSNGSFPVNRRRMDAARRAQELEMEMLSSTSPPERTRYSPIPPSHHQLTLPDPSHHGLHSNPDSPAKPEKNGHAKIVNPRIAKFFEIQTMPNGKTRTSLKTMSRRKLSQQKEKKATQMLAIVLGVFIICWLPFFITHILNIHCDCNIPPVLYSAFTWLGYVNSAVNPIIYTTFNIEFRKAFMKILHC
# Procedure Summary: Binding affinity determined against dopamine receptor D2 in rat caudate membranes using [3H]- raclopride as radioligand
# Format: cell membranes
Please respond with the number in nM and leave the unit unwritten.

Incoming: Please give the measured Ki for this compound: C[C@H]1CC(c2c[nH]c3cc(F)ccc23)CCN1CCC1OCCc2cc(C(N)=O)ccc21 (stereo not given in full)
Outgoing: 86

Incoming: Given NC(=O)c1ccc2c(c1)CCOC2CCN1CC=C(c2c[nH]c3c(F)c(F)ccc23)CC1 (stereo not given) , state its recorded Ki.
Outgoing: 6.7

Incoming: Endpoint output: Ki of N#Cc1cccc2c(C3=CCN(CCC4OCCc5cc(C(N)=O)ccc54)CC3)c[nH]c12 (stereo not given) . Value?
Outgoing: 15

Incoming: Any idea what Ki was measured for NC(=O)c1ccc2c(c1)CCOC2CCN1CCN(c2c[nH]c3cc(F)ccc23)CC1 (stereo not given) ?
Outgoing: 7.1

Incoming: Given the entry NC(=O)c1ccc2c(c1)CCOC2CCN1CC=C(c2[nH]nc3cc(F)ccc23)CC1 (stereo not given) , report its measured Ki.
Outgoing: 33

Incoming: Which Ki value belongs to COc1ccc2[nH]cc(C3=CCN(CCC4OCCc5cc(C(N)=O)ccc54)CC3)c2c1 (stereo not given) ?
Outgoing: 26

Incoming: Give the measured Ki of Cn1nc(C2=CCN(CCC3OCCc4cc(C(N)=O)ccc43)CC2)c2ccc(F)cc21 (stereo not given) .
Outgoing: 183

Incoming: What Ki value was documented for this compound, NC(=O)c1ccc2c(c1)CCOC2CCN1CCC(c2c[nH]c3cc(F)ccc23)CC1 (stereo not given) ?
Outgoing: 19

Incoming: Which Ki is reported for this compound? Cn1cc(C2=CCN(CCC3OCCc4cc(C(N)=O)ccc43)CC2)c2ccc(F)cc21 (stereo not given)
Outgoing: 73

Incoming: Look at this compound and give its reported Ki. NC(=O)c1ccc2c(c1)CCOC2CCN1CC=C(c2csc3cc(F)ccc23)CC1 (stereo not given)
Outgoing: 3.8

Incoming: GET /values?readout=Ki&item= NC(=O)c1ccc2c(c1)CCOC2CCN1CC=C(c2c[nH]c3c(F)cccc23)CC1 (stereo not given)
Outgoing: 3.8

Incoming: Entry NC(=O)c1ccc2c(c1)CCOC2CCN1CC=C(c2c[nH]c3ccc(F)cc23)CC1 (stereo not given) has what Ki?
Outgoing: 2.1

Incoming: # Ki lookup, item NC(=O)c1ccc2c(c1)CCOC2CCN1CC=C(c2c[nH]c3cc(F)ccc23)CC1 (stereo not given)
Outgoing: 4.7

Incoming: Fill in: Ki of NC(=O)c1ccc2c(c1)CCOC2CCN1CC=C(c2ccc(F)c3ccoc23)CC1 (stereo not given) is ___
Outgoing: 52

Incoming: Quick one: Ki for NC(=O)c1ccc2c(c1)CCOC2CCN1CCC(c2cccc3ccccc23)CC1 (stereo not given) ?
Outgoing: 50
